system: σ-2 (Rattus norvegicus, UniProt Q5U3Y7)
Construct: from tissue; host or cells: rat brain homogenate (membrane protein)
Sequence (Q5U3Y7 whole entry): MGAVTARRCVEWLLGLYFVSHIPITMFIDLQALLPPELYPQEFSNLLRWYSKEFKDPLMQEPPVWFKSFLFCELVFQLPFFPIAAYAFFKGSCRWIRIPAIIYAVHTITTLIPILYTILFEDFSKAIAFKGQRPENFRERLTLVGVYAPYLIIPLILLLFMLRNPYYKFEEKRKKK
protocol: σ receptor assay: σ-2 binding with [3H]DTG plus (+)-pentazocine
details: rat brain homogenates; SN table; read-out: Ki (nM) σ2
measured quantity: Ki (nM)
Write the number in nM without appending the unit.

q: Given CC(=O)c1ccc2c(c1)oc(=O)n2CCCCN1CCN(c2ccc(F)cc2)CC1 [SN-79] , state its recorded Ki.
a: 6.06

###

# Ki annotations
system: σ-2 (Rattus norvegicus)
Construct: from tissue; host or cells: rat brain homogenate (membrane protein)
protocol: σ receptor assay: σ-2 binding with [3H]DTG plus (+)-pentazocine
details: rat brain homogenates; CM table; read-out: Ki (nM) […]2
Write the number in nM without appending the unit.

Consider the reported Ki for these compounds:
> print(dat)
                                test.smiles                   system  measured.quantity  value
1  Fc1ccc(-c2cn(CCCCN3CCN(C4CCCCC4)CC3)c3ccccc23)cc1  σ-2 (Rattus norvegicus)                 Ki   22.6
2  Cn1c(=O)n(CCCCN2CCN(C3CCCCC3)CC2)c2ccccc21  σ-2 (Rattus norvegicus)                 Ki   2.57
3     c1ccc2c(c1)ccn2CCCCN1CCN(C2CCCCC2)CC1  σ-2 (Rattus norvegicus)                 Ki    1.9

Okay, now this compound:
q: Given O=c1sc2ccccc2n1CCCCN1CCN(C2CCCCC2)CC1 , state its recorded Ki.
a: 0.39

###

system: norepinephrine transporters
protocol: Non-σ competition binding assay, [3H]nisoxetine
details: rat brain homogenates; read-out: NET Ki
measured quantity: Ki

q: Given S=c1sc2ccccc2n1CCCCN1CCN(C2CCCCC2)CC1 , state its recorded Ki.
a: > 10 µM

###

protocol: in vitro
Format: in vitro ADME
Design: dose or concentration left out as unconfirmed
details: pH 7.4; mouse liver microsomes, NADPH-generating system, 37 °C
measured quantity: half-life
Please give the number followed by its unit.

q: Given Cl.O=c1sc2cc(CCCF)ccc2n1CCN1CCCCCC1 , state its recorded half-life.
a: 4.2 min

###

system: σ-1 receptors
protocol: In vitro radioligand binding assays of CM304 at sigma receptors
Experimental: Competition binding assays were performed as previously described. Briefly, radioligands were used to tag the targeted sites under standard conditions.
measured quantity: Ki (pM)
Write the number in pM without appending the unit.

q: Recall the recorded Ki for Cl.O=c1sc2cc(CCCF)ccc2n1CCN1CCCCCC1 [CM304, hydrochloride] with σ-1 receptors and state it.
a: 2.5
